# Organism: Rattus norvegicus
# ASSAY_COMMENT: Open TG-GATES - Regimen: Daily Repeat
# Assay type: toxicity, organism-based, Sprague-Dawley
# Set-up: regimen Daily Repeat, gender Male, age 6 weeks
# CONDITION_INFO: in vivo, po, 0 mg/kg, […], tissue Blood, route gavage, dose level Control, time 7 day
# note: boundary value 90 x10_2/uL maps to Not met; WBC below it maps to Met

These recorded examples may help you get a feel for the data.
>  <COMPOUND>
OCCOCCN1CCN(C(c2ccccc2)c2ccc(Cl)cc2)CC1 (stereo not given) [HYDROXYZINE]

>  <CLASS_NAME>
Met

$$$$
>  <COMPOUND>
CCCCc1oc2ccccc2c1C(=O)c1cc(I)c(OCCN(CC)CC)c(I)c1 [AMIODARONE]

>  <CLASS_NAME>
Not met

$$$$

Okay, next one:
Does CN(C)CCC=C1c2ccccc2COc2ccccc21 [DOXEPIN] have WBC strictly under 90 x10_2/uL?
Met

###

# Organism: Rattus norvegicus
# ASSAY_COMMENT: Open TG-GATES - Regimen: Single
# Format: toxicity, organism-based, Sprague-Dawley
# Design: regimen Single, gender Male, age 6 weeks
# CONDITION_INFO: in vivo, po, 0 mg/kg, 6 h, tissue Plasma, route gavage, dose level Control
For each of the molecules below, state its ALP.

Past entries and their recorded results:
>  <MOLECULE>
CC1=C(CC(=O)O)c2cc(F)ccc2/C1=C\c1ccc([S+](C)[O-])cc1 (centres undefined)

>  <ALP>
1387.6 IU/L

$$$$
>  <MOLECULE>
CN(C)CCC=C1c2ccccc2COc2ccccc21 [DOXEPIN]

>  <ALP>
1565.4 IU/L

$$$$
>  <MOLECULE>
CN(C)C(=N)N=C(N)N

>  <ALP>
1285 IU/L

$$$$
>  <MOLECULE>
CCC1(c2ccccc2)C(=O)NC(=O)NC1=O

>  <ALP>
907.4 IU/L

$$$$
>  <MOLECULE>
O=NN(CCCl)C(=O)NC1CCCCC1

>  <ALP>
849.6 IU/L

$$$$
>  <MOLECULE>
CC[C@H]1[C@@H]2C[C@H]3[C@@H]4N(C)c5ccccc5[C@]45C[C@@H]([C@@H]2[C@H]5O)N3[C@@H]1O

>  <ALP>
832.4 IU/L

$$$$

For every item in the list below, what is its measured ALP?
1. CCc1oc2ccccc2c1C(=O)c1cc(Br)c(O)c(Br)c1
2. ClC(Cl)(Cl)Cl [CARBON TETRACHLORIDE]
3. OCCOCCN1CCN(C(c2ccccc2)c2ccc(Cl)cc2)CC1 (centres undefined) [HYDROXYZINE]

1. 690.6 IU/L
2. 1166.6 IU/L
3. 1502.2 IU/L

###

# Species: Rattus norvegicus
# ASSAY_COMMENT: Open TG-GATES - Regimen: Single
# Assay type: toxicity, organism-based, Sprague-Dawley
# Set-up: regimen Single, gender Male, age 6 weeks
# CONDITION_INFO: in vivo, po, 0 mg/kg, 9 h, tissue Blood, route gavage, dose level Control
For each of the compounds below, state its RBC.
Numbers only, in x10_4/ul.

>  <COMPOUND>
CC[C@H]1[C@@H]2C[C@H]3[C@@H]4N(C)c5ccccc5[C@]45C[C@@H]([C@@H]2[C@H]5O)N3[C@@H]1O [AJMALINE]

>  <RBC / x10_4/ul>
573.2

$$$$
>  <COMPOUND>
ClC(Cl)(Cl)Cl [CARBON TETRACHLORIDE]

>  <RBC / x10_4/ul>
570

$$$$
>  <COMPOUND>
CCc1oc2ccccc2c1C(=O)c1cc(Br)c(O)c(Br)c1 [BENZBROMARONE]

>  <RBC / x10_4/ul>
631

$$$$

Note: attention shifts to another entry.
Given the compound CC(C)N(CCC(C(N)=O)(c1ccccc1)c1ccccn1)C(C)C (centres undefined) [DISOPYRAMIDE] , what is its reported RBC?
638.2

###

For each of the compounds below, state its Cl.
# Organism: Rattus norvegicus
# ASSAY_COMMENT: Open TG-GATES - Regimen: Daily Repeat
# Assay type: toxicity, organism-based, Sprague-Dawley
# Set-up: regimen Daily Repeat, gender Male, age 6 weeks
# CONDITION_INFO: in vivo, po, 0 mg/kg, 72 h, tissue Plasma, route gavage, dose level Control, time 3 day
Give bare numbers, in meq/L.

>  <COMPOUND>
CCC1(c2ccccc2)C(=O)NC(=O)NC1=O

>  <MEASUREMENT_UNITS>
meq/L

>  <NUMERIC_VALUE>
106.6

$$$$

For every item in the list below, what is its measured Cl?
1. CC(C)N(CCC(C(N)=O)(c1ccccc1)c1ccccn1)C(C)C (centres undefined) [DISOPYRAMIDE]
2. CCc1oc2ccccc2c1C(=O)c1cc(Br)c(O)c(Br)c1
3. CN(C)C(=N)N=C(N)N
4. O=NN(CCCl)C(=O)NC1CCCCC1
5. CC1=C(CC(=O)O)c2cc(F)ccc2/C1=C\c1ccc([S+](C)[O-])cc1 (centres undefined)

1. 107.2
2. 106.3
3. 104.6
4. 104.4
5. 105.8

For every item in the list below, what is its measured Cl?
1. OCCOCCN1CCN(C(c2ccccc2)c2ccc(Cl)cc2)CC1 (centres undefined) [HYDROXYZINE]
2. CC[C@H]1[C@@H]2C[C@H]3[C@@H]4N(C)c5ccccc5[C@]45C[C@@H]([C@@H]2[C@H]5O)N3[C@@H]1O
3. ClC(Cl)(Cl)Cl [CARBON TETRACHLORIDE]

105.8
102.8
103

###

# Organism: Rattus norvegicus
# ASSAY_COMMENT: Open TG-GATES - Regimen: Single
# Format: toxicity, organism-based, Sprague-Dawley
# Set-up: regimen Single, gender Male, age 6 weeks
# CONDITION_INFO: in vivo, po, 0 mg/kg, 9 h, tissue Plasma, route gavage, dose level Control
PROPERTY_NAME: Na (meq/L)
One number for each entry, in meq/L.

>  <MOLECULE>
CCC1(c2ccccc2)C(=O)NC(=O)NC1=O

>  <MEASUREMENT_UNITS>
meq/L

>  <Na>
142.2

$$$$
>  <MOLECULE>
CN(C)C(=N)N=C(N)N

>  <MEASUREMENT_UNITS>
meq/L

>  <Na>
141

$$$$
>  <MOLECULE>
O=NN(CCCl)C(=O)NC1CCCCC1

>  <MEASUREMENT_UNITS>
meq/L

>  <Na>
139

$$$$
>  <MOLECULE>
CC1=C(CC(=O)O)c2cc(F)ccc2/C1=C\c1ccc([S+](C)[O-])cc1 (stereo not given)

>  <MEASUREMENT_UNITS>
meq/L

>  <Na>
142.4

$$$$
>  <MOLECULE>
ClC(Cl)(Cl)Cl [CARBON TETRACHLORIDE]

>  <MEASUREMENT_UNITS>
meq/L

>  <Na>
139.2

$$$$

For every item in the list below, what is its measured Na?
1. CN(C)CCC=C1c2ccccc2COc2ccccc21 [DOXEPIN]
2. CC[C@H]1[C@@H]2C[C@H]3[C@@H]4N(C)c5ccccc5[C@]45C[C@@H]([C@@H]2[C@H]5O)N3[C@@H]1O
3. OCCOCCN1CCN(C(c2ccccc2)c2ccc(Cl)cc2)CC1 (stereo not given) [HYDROXYZINE]
4. CCc1oc2ccccc2c1C(=O)c1cc(Br)c(O)c(Br)c1
5. CC(C)N(CCC(C(N)=O)(c1ccccc1)c1ccccn1)C(C)C (stereo not given) [DISOPYRAMIDE]

[143, 138.2, 142, 139.4, 141.6]

###

# Species: Rattus norvegicus
# ASSAY_COMMENT: Open TG-GATES - Regimen: Daily Repeat
# Type: toxicity, organism-based, Sprague-Dawley
# Set-up: regimen Daily Repeat, gender Male, age 6 weeks
# CONDITION_INFO: in vivo, po, 0 mg/kg, […], tissue Plasma, route gavage, dose level Control, time 14 day
PROPERTY_NAME: gamma-GTP

Past entries and their recorded results:
>  <MOLECULE>
CC1=C(CC(=O)O)c2cc(F)ccc2/C1=C\c1ccc([S+](C)[O-])cc1 (stereo unspecified)

>  <gamma-GTP>
1 IU/L

$$$$
>  <MOLECULE>
CCCCc1oc2ccccc2c1C(=O)c1cc(I)c(OCCN(CC)CC)c(I)c1

>  <gamma-GTP>
1 IU/L

$$$$
>  <MOLECULE>
ClC(Cl)(Cl)Cl [CARBON TETRACHLORIDE]

>  <gamma-GTP>
1 IU/L

$$$$
>  <MOLECULE>
CC(C)N(CCC(C(N)=O)(c1ccccc1)c1ccccn1)C(C)C (stereo unspecified) [DISOPYRAMIDE]

>  <gamma-GTP>
2.2 IU/L

$$$$
>  <MOLECULE>
CCc1oc2ccccc2c1C(=O)c1cc(Br)c(O)c(Br)c1

>  <gamma-GTP>
1.2 IU/L

$$$$

For every item in the list below, what is its measured gamma-GTP?
1. CN(C)C(=N)N=C(N)N
2. O=NN(CCCl)C(=O)NC1CCCCC1
3. CCC1(c2ccccc2)C(=O)NC(=O)NC1=O
4. CC[C@H]1[C@@H]2C[C@H]3[C@@H]4N(C)c5ccccc5[C@]45C[C@@H]([C@@H]2[C@H]5O)N3[C@@H]1O
5. CN(C)CCC=C1c2ccccc2COc2ccccc21 [DOXEPIN]
6. OCCOCCN1CCN(C(c2ccccc2)c2ccc(Cl)cc2)CC1 (stereo unspecified) [HYDROXYZINE]

1: 1 IU/L; 2: 2 IU/L; 3: 0.8 IU/L; 4: 1.4 IU/L; 5: 1 IU/L; 6: 0.6 IU/L
